Target: T1, human DLL3 antigen (human, UniProt Q9NYJ7 27-492)
T1 chain: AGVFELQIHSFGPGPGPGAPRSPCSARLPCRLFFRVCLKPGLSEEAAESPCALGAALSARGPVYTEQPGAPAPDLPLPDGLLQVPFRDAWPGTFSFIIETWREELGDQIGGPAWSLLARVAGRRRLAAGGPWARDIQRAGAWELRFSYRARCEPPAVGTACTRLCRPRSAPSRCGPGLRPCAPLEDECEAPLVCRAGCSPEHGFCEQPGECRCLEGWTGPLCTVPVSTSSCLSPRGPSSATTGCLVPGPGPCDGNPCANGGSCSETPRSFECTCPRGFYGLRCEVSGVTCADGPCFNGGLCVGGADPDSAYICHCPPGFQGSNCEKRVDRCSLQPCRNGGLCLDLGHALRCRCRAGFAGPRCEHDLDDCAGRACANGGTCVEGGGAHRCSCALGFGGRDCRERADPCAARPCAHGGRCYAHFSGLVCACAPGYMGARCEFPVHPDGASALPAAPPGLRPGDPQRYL
Test: SPR
The entries below come with measured Kd values attached.
Numbers only here, please. The scale is nM.

As a guide, the following entries are already answered.
# Kd lookup, item hSC16.56 (antibody, V domains shown) VH: QVQLVQSGAEVKKPGASVKVSCKASGYTFTNYGMNWVRQAPGQGLEWMGWINTYTGEPTYADDFKGRVTMTTDTSTSTAYMELRSLRSDDTAVYYCARIGDSSPSDYWGQGTLVTVSS VL: EIVMTQSPATLSVSPGERATLSCKASQSVSNDVVWYQQKPGQAPRLLIYYASNRYTGIPARFSGSGSGTEFTLTISSLQSEDFAVYYCQQDYTSPWTFGQGTKLEIKR
0.5

Try hSC16.13 (antibody, V domains shown) VH: QITLKESGPTLVKPTQTLTLTCTFSGFSLSTSGMGVGWIRQPPGKALEWLAHIWWDDVKRYSPSLKSRLTITKDTSKNQVVLTMTNMDPVDTATYYCARIVSFDNDVVSAMDYWGQGTLVTVSS VL: DIQMTQSPSSLSASVGDRVTITCSASSSVSYMYWYQQKPGKAPKLLIYLTSNLASGVPSRFSGSGSGTDFTLTISSLQPEDFATYYCQQWRSNPFTFGQGTKLEIKR next.
0.5

Next binder, Kd to be filled in.
# Kd lookup, item SC16.56 (antibody, V domains shown) VH: QIQLVQSGPELKKPGETVKISCKASGYTFTNYGMNWVKQAPGKGLKWMAWINTYTGEPTYADDFKGRFAFSLETSASTASLQIINLKNEDTATYFCARIGDSSPSDYWGQGTTLTVSS VL: SIVMTQTPKFLLVSAGDRVTITCKASQSVSNDVVWYQQKPGQSPKLLIYYASNRYTGVPDRFAGSGYGTDFSFTISTVQAEDLAVYFCQQDYTSPWTFGGGTKLEIR
0.5
